System: RARb:RXRa (NR concentration 270 nM, RXRa partner concentration 90 nM)
Experiment: PBM binding z-score (relative to random genomic background probes); higher = stronger binding; sequences stand for … in GC…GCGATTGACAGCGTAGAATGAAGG
Answer each item with its documented PBM binding z-score.
Give bare numbers.

Worked examples follow.
GCGACTGGGGCACAGCAGGTTACCATAAGGTTGG	0.997
CCTACTGGTCCATTCAGAGGTCATTGATCATATG	2.89
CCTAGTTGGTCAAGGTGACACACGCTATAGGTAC	1.86
ATATGTAGGTAAAGGGTCATTCAGGTTGGTTCGC	3.53
ACTATTAATTGACTTAGGGCAACCGATACGACGC	0.883

Consider the following items and state reported PBM binding z-score for each.
1. TAGCCTAGGTCATTGGCCAGTATACCACGCGAAC
2. ACCCGGAGGACAAAGGTCAGAGCTACGCCAGTGA
3. ATATGTAGGTTACATCCTGGTCATTCAGGCTATG
4. TCGAGTAGGTTAGTCGGGGAATTCAGCCAACATA
5. GCAGACCGGTGAAACGCAGGTAACTCAGGGTGGC

3.57
4.51
1.11
-0.105
-0.191

Consider the following items and state reported PBM binding z-score for each.
1. GCAGAAAGGTGAAACGCAGGTAACTCAGGGTGGC
2. TAGCCTAGGTCATGGGGGCCAGTATAGTGTCGGC
3. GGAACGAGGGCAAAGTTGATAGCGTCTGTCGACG
4. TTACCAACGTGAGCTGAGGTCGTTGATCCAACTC

1: 2.88; 2: 4.04; 3: 2.48; 4: 0.217
